- target: Ratio of Nucleoli Translocation and Cytoplasm, AR (gene 367) (UniProt P10275)
- Sequence (P10275 whole entry, looked up): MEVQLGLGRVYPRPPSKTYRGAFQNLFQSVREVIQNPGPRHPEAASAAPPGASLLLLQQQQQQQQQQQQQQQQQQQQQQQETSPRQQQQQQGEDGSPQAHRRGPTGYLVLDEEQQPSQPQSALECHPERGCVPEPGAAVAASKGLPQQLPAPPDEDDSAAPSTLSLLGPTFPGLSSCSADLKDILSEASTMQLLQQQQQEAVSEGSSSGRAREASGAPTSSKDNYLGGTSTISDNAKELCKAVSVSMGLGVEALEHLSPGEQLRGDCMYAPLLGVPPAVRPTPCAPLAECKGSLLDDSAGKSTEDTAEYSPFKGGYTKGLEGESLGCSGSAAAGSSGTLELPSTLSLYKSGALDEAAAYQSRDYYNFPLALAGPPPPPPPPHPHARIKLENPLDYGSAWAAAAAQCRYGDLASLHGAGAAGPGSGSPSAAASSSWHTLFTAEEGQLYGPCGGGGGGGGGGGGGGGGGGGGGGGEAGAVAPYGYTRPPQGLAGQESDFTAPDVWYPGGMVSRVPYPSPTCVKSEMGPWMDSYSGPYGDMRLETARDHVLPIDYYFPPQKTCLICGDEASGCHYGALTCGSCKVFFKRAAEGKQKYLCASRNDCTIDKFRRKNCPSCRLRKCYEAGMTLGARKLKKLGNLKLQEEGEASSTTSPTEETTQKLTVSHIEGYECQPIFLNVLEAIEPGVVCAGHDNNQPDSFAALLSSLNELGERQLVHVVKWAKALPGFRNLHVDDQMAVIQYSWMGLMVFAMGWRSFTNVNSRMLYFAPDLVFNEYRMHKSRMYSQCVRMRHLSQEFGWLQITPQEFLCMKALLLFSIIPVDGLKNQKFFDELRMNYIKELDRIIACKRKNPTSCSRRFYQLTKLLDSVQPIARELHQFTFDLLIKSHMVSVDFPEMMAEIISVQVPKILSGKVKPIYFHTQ
- experiment_description: UPITT_HCI_U2OS_AR_TIF2_Nucleoli_Cytoplasm_Ratio_Antagonist: University of Pittsburgh U2OS Androgen Receptor-Transcriptional Intermediary Factor 2 (AR-TIF2) Antagonism High Content Imaging Assay for Ratio of Nucleoli Translocation and Cytoplasm (AID 2283999);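 further: antagonists lower the DHT-driven ratio of nucleolar to cytoplasmic red signal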
Inconclusive results are not listed. The source made the active and inactive calls. How the source made its calls: active means hit-call score of the fitted dose curve at least 0.9, where 1 is the maximum; inconclusive means response in the unintended direction; inactive means score below 0.9.
Classes used: active, inactive

compound=CCOc1cccc(-n2cc(C(=O)N3CCN(c4cc(C(=O)O)c5ccccc5c4)CC3)nc2-c2ccc(C)cc2)c1 target="Ratio of Nucleoli Translocation and Cytoplasm, AR (gene 367) (UniProt P10275)" answer_label=inactive
compound=Oc1ccc2c(c1)-c1ccccc1C2 target="Ratio of Nucleoli Translocation and Cytoplasm, AR (gene 367) (UniProt P10275)" answer_label=active
compound="CC(C)=CCCC(C)CCO (centres undefined)" target="Ratio of Nucleoli Translocation and Cytoplasm, AR (gene 367) (UniProt P10275)" answer_label=inactive
compound=CCCCCCc1ccc(O)cc1O target="Ratio of Nucleoli Translocation and Cytoplasm, AR (gene 367) (UniProt P10275)" answer_label=inactive
compound=CN(C)c1ccc(N=NS(=O)(=O)O)cc1 target="Ratio of Nucleoli Translocation and Cytoplasm, AR (gene 367) (UniProt P10275)" answer_label=inactive
compound=Cc1ccc(N)cc1O target="Ratio of Nucleoli Translocation and Cytoplasm, AR (gene 367) (UniProt P10275)" answer_label=inactive
compound=CCCN(C1CCN(C(=O)C2CCNCC2)CC1)[C@@H]1CCc2ccc(OC)cc2C1 target="Ratio of Nucleoli Translocation and Cytoplasm, AR (gene 367) (UniProt P10275)" answer_label=inactive
compound=O=C(O)c1cccc(N(Cc2cccnc2)c2ccc(OC(F)F)c(OC(F)F)c2)c1 target="Ratio of Nucleoli Translocation and Cytoplasm, AR (gene 367) (UniProt P10275)" answer_label=inactive
compound="CNS(=O)(=O)c1cc(C(=O)N2CCC(CCN3C4CCC3CC(n3c(C)nc5ccccc53)C4)(c3cccc(F)c3)CC2)c(Cl)cc1F (centres undefined)" target="Ratio of Nucleoli Translocation and Cytoplasm, AR (gene 367) (UniProt P10275)" answer_label=inactive
